protocol.conditions: in methanol, 318.15 K
readout.type: solubility (mole fraction)
Form rule: numeric answer, no unit written next to it.

Exam item: Answer with the recorded solubility (mole fraction) of C=NCC#N only.
Marked response: 0.0169

----------
protocol.conditions: in n-propanol, 323.15 K
readout.type: solubility (mole fraction)
Form rule: numeric answer, no unit written next to it.

Exam item: Answer with the recorded solubility (mole fraction) of C=NCC#N only.
Marked response: 0.00499

----------
protocol.conditions: in methanol, 293.15 K
readout.type: solubility (mole fraction)
Form rule: numeric answer, no unit written next to it.

Exam item: Answer with the recorded solubility (mole fraction) of C=NCC#N only.
Marked response: 0.00747
